I'd appreciate it if you could supply koff values for the items below.
Molecular target: T1, human LAP-TGFB1 Fc fusion (human)
T1 construct: also called human LAP-TGFβ1-Fc; human LAP-TGFβ-Fc isoform 1
T1 sequence (chain, as listed by the source limits assumed): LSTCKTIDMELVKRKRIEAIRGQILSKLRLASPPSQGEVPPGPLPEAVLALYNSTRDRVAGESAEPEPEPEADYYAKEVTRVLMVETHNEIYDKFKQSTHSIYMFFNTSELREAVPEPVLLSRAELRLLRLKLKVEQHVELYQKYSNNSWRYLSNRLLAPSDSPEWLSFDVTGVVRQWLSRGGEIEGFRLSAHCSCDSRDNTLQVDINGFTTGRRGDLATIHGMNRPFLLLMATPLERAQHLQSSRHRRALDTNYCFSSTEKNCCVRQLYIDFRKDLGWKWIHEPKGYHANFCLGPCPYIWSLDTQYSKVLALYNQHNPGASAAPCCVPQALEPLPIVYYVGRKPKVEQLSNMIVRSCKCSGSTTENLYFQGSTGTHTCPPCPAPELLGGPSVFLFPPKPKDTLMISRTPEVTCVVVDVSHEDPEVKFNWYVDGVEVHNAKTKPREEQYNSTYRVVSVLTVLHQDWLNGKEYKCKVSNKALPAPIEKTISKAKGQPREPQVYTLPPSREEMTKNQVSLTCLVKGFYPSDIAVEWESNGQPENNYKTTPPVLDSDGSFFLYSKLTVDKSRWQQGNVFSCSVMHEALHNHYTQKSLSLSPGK
Experiment: SPR pH 7.4, antigen-Fc captured, Fab analyte
Numbers only, in s⁻¹.

[[record]]
binder = "55BLH (Fab, V domains shown, also called 07BLM Fab) VH: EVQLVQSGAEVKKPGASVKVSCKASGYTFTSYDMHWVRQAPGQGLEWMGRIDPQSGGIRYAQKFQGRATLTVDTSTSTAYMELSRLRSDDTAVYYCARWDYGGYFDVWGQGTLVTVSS VL: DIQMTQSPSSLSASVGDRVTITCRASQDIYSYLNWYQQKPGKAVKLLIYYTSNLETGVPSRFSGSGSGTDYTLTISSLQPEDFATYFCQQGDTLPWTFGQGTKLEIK"
observed_result = 0.000528

[[record]]
binder = "54BLH (Fab, V domains shown, also called 06BLM Fab) VH: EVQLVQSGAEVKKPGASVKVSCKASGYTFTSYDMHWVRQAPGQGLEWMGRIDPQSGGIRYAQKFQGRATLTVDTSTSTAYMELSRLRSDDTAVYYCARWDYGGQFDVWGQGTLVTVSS VL: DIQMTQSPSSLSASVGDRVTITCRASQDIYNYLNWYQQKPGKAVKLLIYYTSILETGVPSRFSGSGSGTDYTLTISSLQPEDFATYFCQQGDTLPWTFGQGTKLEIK"
observed_result = "2.07e-05"


Now consider the entry below.
// query koff value for entry 65BLH (Fab, V domains shown, also called 17BLM Fab) VH: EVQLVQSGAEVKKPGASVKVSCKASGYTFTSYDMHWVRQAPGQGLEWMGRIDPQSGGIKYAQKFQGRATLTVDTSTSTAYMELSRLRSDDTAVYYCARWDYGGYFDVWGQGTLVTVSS VL: DIQMTQSPSSLSASVGDRVTITCRASQDIYNYLNWYQQKPGKAVKLLIYYTSRLETGVPSRFSGSGSGTDYTLTISSLQPEDFATYFCQQGDELPWTFGQGTKLEIK
0.00107
